meta.source: ChEMBL document CHEMBL4138253

- TARGET_DESC: Bile acid receptor (Homo sapiens)
- Sequence (Q96RI1 whole entry, the tested form may be a part): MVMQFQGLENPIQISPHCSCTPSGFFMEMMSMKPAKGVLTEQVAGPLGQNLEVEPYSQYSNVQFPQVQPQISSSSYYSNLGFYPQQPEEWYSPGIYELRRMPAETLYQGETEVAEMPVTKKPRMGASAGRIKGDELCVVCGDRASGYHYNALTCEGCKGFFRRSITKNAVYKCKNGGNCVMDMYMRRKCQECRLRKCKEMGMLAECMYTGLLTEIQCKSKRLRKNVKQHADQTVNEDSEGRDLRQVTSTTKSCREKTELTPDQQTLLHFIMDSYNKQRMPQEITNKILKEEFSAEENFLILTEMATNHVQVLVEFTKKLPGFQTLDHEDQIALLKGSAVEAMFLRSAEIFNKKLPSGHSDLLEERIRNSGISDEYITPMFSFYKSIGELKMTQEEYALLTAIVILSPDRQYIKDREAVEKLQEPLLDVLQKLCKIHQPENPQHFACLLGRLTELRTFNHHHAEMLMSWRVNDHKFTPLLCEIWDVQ
- ASSAY_REMARKS: Agonist activity at recombinant human GST-tagged FXR LBD (193 to 472 residues) expressed in baculovirus-infected insect cells assessed as recruitment of biotinylated SRC1 peptide measured after 1 hr by Alphascreen assay
READOUT: pEC50
Give bare numbers, as −log10 of the molar value.

Could you tell me pEC50 for each of these compounds? They are listed below.
1. CC[C@H]1[C@@H](O)[C@@H]2[C@H](CC[C@]3(C)[C@@H]([C@H](C)CCC(=O)O)CC[C@@H]23)[C@@]2(C)CCCC[C@@H]12
2. CC[C@H]1[C@@H](O)[C@@H]2[C@H](CC[C@]3(C)[C@@H]([C@H](C)CCNS(C)(=O)=O)CC[C@@H]23)[C@@]2(C)CC[C@@H](O)C[C@@H]12
3. CC[C@H]1[C@@H](O)[C@@H]2[C@H](CC[C@]3(C)[C@@H]([C@H](C)CCC(=O)O)CC[C@@H]23)[C@@]2(C)CCC(F)(F)C[C@@H]12
4. CC[C@H]1[C@@H](O)[C@@H]2[C@H](CC[C@]3(C)[C@@H]([C@H](C)CCC(N)=O)CC[C@@H]23)[C@@]2(C)CC[C@@H](O)C[C@@H]12

a:
[6.40, 6.55, 5.96, 6.22]
